Assay: amyloid nucleation score (Sup35N fusion, yeast selection) (log enrichment); library NNK3; higher = more nucleation; inactive = no reads after selection;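 further: zero at mode of non-aggregating sequences after 7 days selection at 30°C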
measured_metric: amyloid nucleation score

> print(dat)
           residue.codes  test.result
 1     WMRVSCDTRGYSSFQAY       -0.538
 2  RYTGLMTKLASYYNKISICN     inactive
 3  YRINDKSFNVISGIVFSVVR     inactive
 4  EYRGKIDVYYLIGQNYSVSC        0.621
 5  PSFGDEDTYNRDLALTLMDC     inactive
 6  LYMSWAKTLFGECNCSHVLL     inactive
 7  ANIGKIVKEHRQQSIQHCID     inactive
 8  DFGKNSLWSSREDNLKYWFM     inactive
 9  YGGDWCARTPCLSRVNSVKP     inactive
10  KDLRYTVFEVWDKYWPLTGL     inactive
11  FSFMLSDTGLSVFSSVYDEA     inactive
12              TWSGQGHR     inactive
13  DLFSFYVGCLKSHPENPSLM     inactive
14  GERHMVLSVNLRCVTVNVYW     inactive
15  GDMFGQPCRTCMFDLLKPVS     inactive
16  SCDNYVVLTHEFVLSHSKSL         1.01

---

Test: amyloid nucleation score (Sup35N fusion, yeast selection) (log enrichment); library NNK1; higher = more nucleation; inactive = no reads after selection
Outcome label depends on amyloid nucleation score relative to -0.2: at/above gives Met, below gives Not met.

> print(dat)
               substance    group
 1             GNALYICRF      Met
 2  VNMSVIWGRVFASEKVYRAK      Met
 3  VSINGGEYMSEFAGICGPVD      Met
 4              TLSGSYVF  Not met
 5  ILMFWSPVGSRLTLSTSKLQ  Not met
 6  RLVNPRDCKFNDTRTFCSRR      Met
 7         CVRFDSVNCHHLF      Met
 8             QGGTVCLEF  Not met
 9  DKPFCFILNYNSVYDCVMSV      Met
10               LFVSNMC  Not met
11  IRTCLVSIVATRCKVGVESP      Met
12            WLHGFKWRED  Not met
13            VYLSYVFMYS  Not met
14             RVGNNLNFM  Not met
15  FSVRGYSNLSAEDFINLKVP  Not met
16       RADGLHASETVGSLL  Not met
17                SIPIVL      Met
18            HKCWVDGIVY      Met

---

Test: amyloid nucleation score (Sup35N fusion, yeast selection) (log enrichment); library NNK2; higher = more nucleation; inactive = no reads after selection
// amyloid nucleation score lookup, one value per entry
measured_metric: amyloid nucleation score

> print(dat)
               substance  test.result
 1     WNLFMQYAFYRMDLASK       -0.689
 2  YYLVYKAGKMLIEYHKSYNW         -1.1
 3  ISINTICSNVDIGYGVAVFH         3.92
 4          FIDFGVVVSWVL        0.985
 5  IFCADMVLNFGGMCPARERA        0.038
 6            LTSWKDFRHN          0.4
 7  FIWSLRGDDRSCLRLSSLQT           -1
 8                PCQCKV         4.16
 9       GGWLYANGEYWWSTG         1.53
10   LNIIMGSSDFCPESFYKFW        0.266
11  HLTESHFGWFGSDVSSQTFL         3.42
12    MCLMYANWERFDQKNGLR         4.12
13  SIGPLLHMCSFVFLEVRIIF         1.83
14                ASPFRF        0.816
15  VMGNFRFYRSMLAFDYDEGV         1.14
16         LVTECNRDGTLDG       -0.582
17  RVNMDAGVLSVHLEAVGFHM         4.08

---

Assay: amyloid nucleation score (Sup35N fusion, yeast selection) (log enrichment); library NNK3; higher = more nucleation; inactive = no reads after selection
measured_metric: amyloid nucleation score

> print(dat)
           residue.codes  test.result
 1  LRVVISLVIYMRSSTRICSV     inactive
 2  VVCELCGSYYYIHCWDCNAS         2.75
 3         CYRRSYASKLSDV     inactive
 4  TTRRVGCLMGFLVDFRIKSC     inactive
 5          DRHVSQFSVWDW     inactive
 6  LFVIKGENNSEEYTNVNFWR        0.389
 7  RLDGSMSGCFSTFWNWNIVR     inactive
 8  RYSESLMFRFKWDDYYRGRV       -0.307
 9  RYFSFELKLMLISELYVMAV     inactive
10  RECWMKPNLNSNTYSEMICE        0.011
11    FDDYLKSYFKQYSNDHVG     inactive
12  LGAAASSGRPMLTKYHLFWA     inactive
13  SCKRPVTVWACDQVRYDRFP     inactive
14  NCPQWDVCFTYLSSGRQRAD     inactive
15  SSERGMLVDNVLSHSWMFCI         1.35
16  KLSWTPRLLNSYSLLEYVQD     inactive
17            VLRCTSPIES     inactive

---

Experiment: amyloid nucleation score (Sup35N fusion, yeast selection) (log enrichment); library NNK1; higher = more nucleation; inactive = no reads after selection
measured_metric: amyloid nucleation score

> print(dat)
               substance           measured.metric  test.result
 1  RIAVWSSGSYCMYYTCWCNH  amyloid nucleation score       -0.191
 2  GSLSVAATSFTVMYRVKLVF  amyloid nucleation score        0.085
 3  NGSLLWYVCSSWNVMHDGSV  amyloid nucleation score           -1
 4     NFKTSKWYESGRASRSS  amyloid nucleation score       -0.076
 5  CFSHVWVDLIDFYVRFVLFR  amyloid nucleation score       -0.209
 6                PSRDSV  amyloid nucleation score        -1.06
 7  RGTGLICCTNVCGRTWKGHN  amyloid nucleation score         7.41
 8        ICSNGRARPGNMSV  amyloid nucleation score       -0.047
 9  FSYLSFCPVVSFESTFPTPM  amyloid nucleation score         5.29
10            VQNKYRFTLY  amyloid nucleation score         1.65
11  NVILFNYLREILRLCYMACM  amyloid nucleation score        0.758
12       CPVKGFLSVTACDYL  amyloid nucleation score       -0.384
13  SLKMEDFKKNSKMRMDFINH  amyloid nucleation score         1.85
14     SIFSSSEVGVQLYTMGG  amyloid nucleation score         0.91
15  VGYNNWTLVWGQGAMRVYSG  amyloid nucleation score        0.033
16                FNLWIP  amyloid nucleation score         2.13
17               NLTRITF  amyloid nucleation score       -0.762
18  KVLSYWDVSWGMASRFVSCY  amyloid nucleation score        0.724
19  LCSLVFTIRRTPPWVQSMLR  amyloid nucleation score        0.096
20  KVPYLVDYISLVFFVFKVLF  amyloid nucleation score       -0.388
21               KGFLRFG  amyloid nucleation score        0.333
22     NRYRCYDCTLVGRVSYS  amyloid nucleation score       -0.436
23              FLHFVYRI  amyloid nucleation score       -0.578
24  GVCALAHRAPIWDQFVGMLV  amyloid nucleation score        0.109
25  FLMFQGSYIYRNTGFYSSSD  amyloid nucleation score       -0.176
26               WPGMPRS  amyloid nucleation score         1.17
27  INTSYIEEHYELVGFVHWNV  amyloid nucleation score       -0.449
28  WSVDIGLRGLIMRMKYCEFR  amyloid nucleation score        -1.01
29  ISTAVAIAGQQARNWGAHLR  amyloid nucleation score       -0.196
30  QYHLWFMCAAVDRMKNGPFG  amyloid nucleation score        0.049
31  IQSRDGVSYKQDVWTLGCVL  amyloid nucleation score        0.658
32  YNAASKGEINPNAGNVILFV  amyloid nucleation score         3.13
33              MYISRFRF  amyloid nucleation score         3.42
34            TNRVHLWFVL  amyloid nucleation score         7.57
35  TRSYNWARCTLSGVALGQGQ  amyloid nucleation score       -0.724
36                VMGFHT  amyloid nucleation score       -0.402
37  RYVSLDRPYTSNNNRYAKGV  amyloid nucleation score        0.475
38  PMLNFEIMVRHDRRRLYKVC  amyloid nucleation score        0.714
39           CYDGDRFIEEA  amyloid nucleation score        0.364
40  YNCWSSLNFYNPIFLRTLLG  amyloid nucleation score         3.46
41    VSYKTGIWGVSCDIDGVY  amyloid nucleation score       -0.182
42  SVRVHFMVRHGLGVRLSASD  amyloid nucleation score         1.61
43  DWMFCTYCVTVFESQNVAVH  amyloid nucleation score        0.272
44  LLFSKRVLVSWGFDRGGSEE  amyloid nucleation score        0.336
45         TSLWCQLRKFNYI  amyloid nucleation score       -0.181
46  LEAMPMCGEELRSLYTMVNV  amyloid nucleation score        0.552
47  GNSSNAMKFEIHISSDHVAY  amyloid nucleation score        0.845
48  KVLSIRWECPLECFALQSYV  amyloid nucleation score        0.042
49        RRYVICNYCLYSRV  amyloid nucleation score         1.12
50         FTMKMGYMVAFIW  amyloid nucleation score       -0.394
51  ACWLAKHKEYRLSGHVQEFD  amyloid nucleation score        0.035
52  YSQCSRVNFWISAYCVNYIN  amyloid nucleation score         7.03
53  LRWYTQGMVLLEDRPCRCYN  amyloid nucleation score        -1.01
54  LDEYINNEDSMFLCGILLSS  amyloid nucleation score          0.2
55              LFQCASWM  amyloid nucleation score       -0.024
56              YRHTVIVY  amyloid nucleation score         1.13
57  TDCGSTMNGGCINMCVCGHR  amyloid nucleation score         7.42
58  CNMKNDLTRGNSRFCNLCCN  amyloid nucleation score         0.85
59  MLVPRSRIRIPACRFQHRLP  amyloid nucleation score       -0.064
60  NLNFLFFQWSNIMVCHQNQV  amyloid nucleation score         4.62
61  RDLPFVTSSLCCSNTSGCMF  amyloid nucleation score        0.429
62        RHRVQTTPSSMSFV  amyloid nucleation score       -0.388
63  GLSQKVGKPAAALLRTMVSD  amyloid nucleation score       -0.309
64           GYSNFTNYLFQ  amyloid nucleation score        0.091
65  TMDGHLGYRSRNILLLSVFV  amyloid nucleation score        -0.41
66             ILHFWLTYK  amyloid nucleation score         4.63
67         KYGEVLLVTYTNP  amyloid nucleation score        0.577
68           IVRDFMVLINR  amyloid nucleation score       -0.911
69    YIHLMRYARNLLPFRYCV  amyloid nucleation score       -0.641
